- Tested on: 388556-164-R-J1-PDC complex spheroid viability
- test method notes: Anticancer human tumor 388556-164-R-J1-PDC patient-derived colon adenocarcinoma cell line growth inhibition [RAS]
- experimental conditions: second compound 0.00949 µM; first compound 0.0316 µM; stronger effect = lower value
Quick reference for viability, T/C among some molecules

molecule: CC(Nc1ccc2c(c1)OCCn1cc(N3C(=O)OCC3C(F)F)nc1-2)C(N)=O (centres undefined) + CCn1c(-c2cc(N3CCN(C)CC3)cnc2C(C)OC)c2c3cc(ccc31)-c1csc(n1)CC(NC(=O)C1CC1C)C(=O)N1CCCC(N1)C(=O)OCC(C)(C)C2
measurement unit: %
viability, T/C: 79.3

molecule: C=CC(=O)N1CCN(c2nc(OCC3CCCN3C)nc3c(F)c(-c4nc(N)cc(C)c4C(F)(F)F)c(Cl)cc23)C(C)C1 (centres undefined) + CCn1c(-c2cc(N3CCN(C)CC3)cnc2C(C)OC)c2c3cc(ccc31)-c1csc(n1)CC(NC(=O)C1CC1C)C(=O)N1CCCC(N1)C(=O)OCC(C)(C)C2
measurement unit: %
viability, T/C: 78.8

molecule: Nc1ccn(C2OC(CO)C(O)C2(F)F)c(=O)n1 (centres undefined) + CCn1c(-c2cccnc2C(C)OC)c2c3cc(ccc31)N1CCOC(CC(NC(=O)C(C(C)C)N(C)C(=O)C3(F)CCN(C(=O)C#CC(C)(C)N(C)C)CC3)C(=O)N3CCCC(N3)C(=O)OCC(C)(C)C2)C1
measurement unit: %
viability, T/C: 78.6

molecule: CC1(O)CCCC1n1c(=O)c(C(F)F)cc2cnc(NC3CCN(S(C)(=O)=O)CC3)nc21 (centres undefined) + CCn1c(-c2cc(N3CCN(C)CC3)cnc2C(C)OC)c2c3cc(ccc31)-c1csc(n1)CC(NC(=O)C1CC1C)C(=O)N1CCCC(N1)C(=O)OCC(C)(C)C2
measurement unit: %
viability, T/C: 78.8

---

- Tested on: 388556-164-R-J1-PDC complex spheroid viability
- test method notes: Anticancer human tumor 388556-164-R-J1-PDC cell line growth inhibition [RAS];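 also: spheroids exposed to compound for 7 days before readout; 100% = DMSO vehicle control luminescence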
- experimental conditions: second compound 3.16 µM; first compound 0.0316 µM; stronger effect = lower value

compound: CCC(CC)c1cc(NC2CCC(N)C2)n2nccc2n1 (stereo not drawn) + C#Cc1c(F)ccc2cc(O)cc(-c3ncc4c(N5CC6CCC(C5)N6)nc(OCC56CCCN5CC(F)C6)nc4c3F)c12
viability, T/C, %: 73.9
//
compound: CC(=O)OC12COC1CC(O)C1(C)C(=O)C(O)C3=C(C)C(OC(=O)C(O)C(NC(=O)OC(C)(C)C)c4ccccc4)CC(O)(C(OC(=O)c4ccccc4)C21)C3(C)C (stereo not drawn) + C#Cc1c(F)ccc2cc(O)cc(-c3ncc4c(N5CC6CCC(C5)N6)nc(OCC56CCCN5CC(F)C6)nc4c3F)c12
viability, T/C, %: 72.8
//
compound: CC(Nc1ccc2c(c1)OCCn1cc(N3C(=O)OCC3C(F)F)nc1-2)C(N)=O (stereo not drawn) + C#Cc1c(F)ccc2cc(O)cc(-c3ncc4c(N5CC6CCC(C5)N6)nc(OCC56CCCN5CC(F)C6)nc4c3F)c12
viability, T/C, %: 82.4

---

- System: 388556-164-R-J1-PDC complex spheroid viability
- test method notes: Anticancer human tumor 388556-164-R-J1-PDC cell line growth inhibition [RAS];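 also: spheroids exposed to compound for 7 days before readout; 100% = DMSO vehicle control luminescence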
- experimental conditions: second compound 1 µM; first compound 0.0316 µM; stronger effect = lower value
value kind: viability, T/C

compound: CC1(O)CCCC1n1c(=O)c(C(F)F)cc2cnc(NC3CCN(S(C)(=O)=O)CC3)nc21 (centres undefined) + C=CC(=O)N1CCN(c2nc(OCC3CCCN3C)nc3c(F)c(-c4nc(N)cc(C)c4C(F)(F)F)c(Cl)cc23)C(C)C1
value kind: viability, T/C
observed: 98.7%
--
compound: CC(Nc1ccc2c(c1)OCCn1cc(N3C(=O)OCC3C(F)F)nc1-2)C(N)=O (centres undefined) + C#Cc1c(F)ccc2cc(O)cc(-c3ncc4c(N5CC6CCC(C5)N6)nc(OCC56CCCN5CC(F)C6)nc4c3F)c12
value kind: viability, T/C
observed: 82.1%
--
compound: Nc1ccn(C2OC(CO)C(O)C2(F)F)c(=O)n1 (centres undefined) + C=CC(=O)N1CCN(c2nc(OCC3CCCN3C)nc3c(F)c(-c4nc(N)cc(C)c4C(F)(F)F)c(Cl)cc23)C(C)C1
value kind: viability, T/C
observed: 80.2%
--
compound: CC(Nc1ccc2c(c1)OCCn1cc(N3C(=O)OCC3C(F)F)nc1-2)C(N)=O (centres undefined) + C=CC(=O)N1CCN(c2nc(OCC3CCCN3C)nc3c(F)c(-c4nc(N)cc(C)c4C(F)(F)F)c(Cl)cc23)C(C)C1
value kind: viability, T/C
observed: 99.4%
